Molecular target: hCTR W361A (Homo sapiens, UniProt P30988, W361A)
Construct: expressed in transfected cells
Sequence (P30988 25-474 W361A): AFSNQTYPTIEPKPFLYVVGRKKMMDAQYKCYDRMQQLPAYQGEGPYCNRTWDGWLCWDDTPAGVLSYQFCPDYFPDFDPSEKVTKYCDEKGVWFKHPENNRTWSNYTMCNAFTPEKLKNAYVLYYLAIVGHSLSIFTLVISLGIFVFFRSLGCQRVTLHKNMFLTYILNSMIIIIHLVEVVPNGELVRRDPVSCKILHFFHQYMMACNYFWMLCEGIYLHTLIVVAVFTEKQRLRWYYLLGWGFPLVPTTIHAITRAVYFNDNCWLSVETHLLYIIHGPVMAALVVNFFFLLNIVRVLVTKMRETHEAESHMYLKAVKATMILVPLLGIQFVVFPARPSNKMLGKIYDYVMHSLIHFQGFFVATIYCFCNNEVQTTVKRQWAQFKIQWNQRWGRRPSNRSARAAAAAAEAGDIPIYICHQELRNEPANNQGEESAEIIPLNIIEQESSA
Test: Homologous whole cell competition binding
Conditions: homologous competition of 125I-sCT(8-32), whole cells, mean ± S.E.M., SEM
Where no end group is shown, it is not given here.
measure: Ki (pM)
Form entry: value (pM) — number only.

IN: # return recorded Ki for entry VLGKLSQELHKLQTYPRTNTGSGTP-NH2 [sCT(8-32)]
OUT: 282

Sourced from paper PMC5908784
